Overview of reported shrunken log2 fold change across a group of sequences:
# System: Escherichia coli TOP10;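 note: peptides expressed intracellularly from a pBAD plasmid library in pooled LB shake-flask culture, induced with 0.3% L-arabinose, DNA abundance read by NGS, three biological replicates, DESeq2 with apeglm shrinkage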
# run description: shrunken log2 fold change of peptide-encoding DNA abundance (4.5 h post-induction vs induction); higher = less antimicrobial activity (less host growth inhibition)
# condition: time post-induction: 4.5 h; library: site-saturation at positions 5, 18, 19, 20
Give only the figure.

RRIRMRPPRLPRPRPRPGKPPRP | 0.0496
RRIRSRPPRLPRPRPRPNPRPRP | 0.0955

Measured shrunken log2 fold change of RRIRARPPRLPRPRPRPPDDPRP : 1.2

Measured shrunken log2 fold change of RRIRIRPPRLPRPRPRPTAKPRP : -0.184

Measured shrunken log2 fold change of RRIRIRPPRLPRPRPRPNCKPRP : -0.658

Measured shrunken log2 fold change of RRIRMRPPRLPRPRPRPMLPPRP : 0.301

Measured shrunken log2 fold change of RRIRERPPRLPRPRPRPRRWPRP : 0.267

Measured shrunken log2 fold change of RRIRPRPPRLPRPRPRPDSWPRP : 0.392

Measured shrunken log2 fold change of RRIRARPPRLPRPRPRPSSIPRP : 0.101

Measured shrunken log2 fold change of RRIRMRPPRLPRPRPRPYSMPRP : -0.245

These entries and their values trace back to the supplement of paper PMC9112550.
